Reported IC50 by item:
# Test system: Plasmodium falciparum
# procedureText: Antimalarial activity after 72hrs against chloroquine-sensitive Plasmodium falciparum 3D7 infected erythrocytes
# Assay type: functional, organism-based
# reportedConditions: 3D7, 72 h
Express it in µg/mL; write the number only.

Known results for compounds:
Cc1ccccc1Nc1nc(NC2CCCCC2)nc(N2CCN(CCNc3ccnc4cc(Cl)ccc34)CC2)n1	0.194
Clc1ccc2c(NCCN3CCN(c4nc(Nc5ccccc5)nc(N5CCCCC5)n4)CC3)ccnc2c1	0.0178

Which value of IC50 has been reported for `Clc1ccc2c(NCCN3CCN(c4nc(Nc5ccccc5)nc(Nc5ccccc5)n4)CC3)ccnc2c1` in the records? 0.0756

Which value of IC50 has been reported for `Fc1ccc(Nc2nc(N3CCCCC3)nc(N3CCN(CCNc4ccnc5cc(Cl)ccc45)CC3)n2)cc1` in the records? 0.00715

====

Reported IC50 by item:
# System: Plasmodium falciparum
# procedureText: Antimalarial activity after 72hrs against chloroquine-sensitive Plasmodium falciparum 3D7 infected erythrocytes
# Format: functional, organism-based
# reportedConditions: 3D7, 72 h
Express it in µg/mL; write the number only.

Which value of IC50 has been reported for `Clc1ccc2c(NCCN3CCN(c4nc(Nc5ccccc5)nc(N5CCOCC5)n4)CC3)ccnc2c1` in the records? 0.0213

Which value of IC50 has been reported for `Cc1ccc(Nc2nc(N3CCN(CCNc4ccnc5cc(Cl)ccc45)CC3)nc(N3CCN(c4ccccc4)CC3)n2)cc1` in the records? 0.0646

====

Reported Activity by item:
# Tested on: Plasmodium yoelii
# procedureText: Antimalarial activity as reduced parasitaemia after 6 days against Plasmodium yoelii N67 infected Swiss mice (Mus musculus) at 50 mg/kg/day intraperitoneal dose
# Format: functional, N-67
# Design: scale not given: the % may be the effect or the level left

Known results for compounds:
Fc1ccc(Nc2nc(N3CCCCC3)nc(N3CCN(CCNc4ccnc5cc(Cl)ccc45)CC3)n2)cc1	96.51%
Clc1ccc2c(NCCN3CCN(c4nc(Nc5ccccc5)nc(N5CCCCC5)n4)CC3)ccnc2c1	55.36%
Clc1ccc2c(NCCN3CCN(c4nc(NC5CCCCC5)nc(N5CCCCC5)n4)CC3)ccnc2c1	99.11%
Fc1ccc(Nc2nc(NC3CCCCC3)nc(N3CCN(CCNc4ccnc5cc(Cl)ccc45)CC3)n2)cc1	71.75%
Clc1ccc2c(NCCN3CCN(c4nc(Nc5ccccc5)nc(NC5CCCCC5)n4)CC3)ccnc2c1	78.73%

Moving on to the next compound.
Kindly state the measured Activity obtained for CCN(CC)CCCC(C)Nc1ccnc2cc(Cl)ccc12 (stereo unspecified) with Plasmodium yoelii. 94.26%

====

# procedureText: Selectivity index, ratio of IC50 for african green monkey (Cercopithecus aethiops) Vero cells to IC50 for chloroquine-sensitive Plasmodium falciparum 3D7
# Assay type: toxicity, cell-based
# reportedConditions: read-out: Ratio IC50
Label MET when selectivity ratio is at or above 300; otherwise label NOT MET.

Example results:
Cc1ccc(Nc2nc(N3CCN(CCNc4ccnc5cc(Cl)ccc45)CC3)nc(N3CCN(c4ccccc4)CC3)n2)cc1	NOT MET
Cc1ccc(Nc2nc(N3CCOCC3)nc(N3CCN(CCNc4ccnc5cc(Cl)ccc45)CC3)n2)cc1	MET
Clc1ccc2c(NCCN3CCN(c4nc(Nc5ccccc5)nc(NC5CCCCC5)n4)CC3)ccnc2c1	NOT MET
Clc1ccc2c(NCCN3CCN(c4nc(Nc5ccccc5)nc(N5CCOCC5)n4)CC3)ccnc2c1	MET
Cc1ccccc1Nc1nc(Nc2ccccc2C)nc(N2CCN(CCNc3ccnc4cc(Cl)ccc34)CC2)n1	NOT MET

hey, is selectivity ratio for this one >= 300? `Clc1ccc2c(NCCN3CCN(c4nc(N5CCCCC5)nc(N5CCCCC5)n4)CC3)ccnc2c1` NOT MET

hey, is selectivity ratio for this one >= 300? `Clc1ccc2c(NCCN3CCN(c4nc(NC5CCCCC5)nc(N5CCCCC5)n4)CC3)ccnc2c1` MET

hey, is selectivity ratio for this one >= 300? `O=CN1CCN(c2nc(N3CCOCC3)nc(N3CCN(CCNc4ccnc5cc(Cl)ccc45)CC3)n2)CC1` MET

hey, is selectivity ratio for this one >= 300? `Clc1ccc2c(NCCN3CCN(c4nc(Nc5ccccc5)nc(Nc5ccccc5)n4)CC3)ccnc2c1` NOT MET

hey, is selectivity ratio for this one >= 300? `Cc1ccccc1Nc1nc(NC2CCCCC2)nc(N2CCN(CCNc3ccnc4cc(Cl)ccc34)CC2)n1` NOT MET

hey, is selectivity ratio for this one >= 300? `Fc1ccc(Nc2nc(N3CCCCC3)nc(N3CCN(CCNc4ccnc5cc(Cl)ccc45)CC3)n2)cc1` MET

hey, is selectivity ratio for this one >= 300? `CCN1CCN(c2nc(Nc3ccc(C)cc3)nc(N3CCN(CCNc4ccnc5cc(Cl)ccc45)CC3)n2)CC1` NOT MET

hey, is selectivity ratio for this one >= 300? `CCN1CCN(c2nc(Nc3ccccc3)nc(N3CCN(CCNc4ccnc5cc(Cl)ccc45)CC3)n2)CC1` NOT MET
